Source listed as patent US12257247B2.

Consider the following compounds and their measured DC50 readings.
target: VAV1 (Homo sapiens, UniProt P15498+Q96SW2); construct: A heterozygous VAV1 C-terminal HiBiT knock-in pool was generated at Monte Rosa Therapeutics from a clonal Jurkat cell; endogenous in cells; host or cells: Jurkat clone stably expressing LgBiT, homozygous GSPT1-G575N; heterozygous VAV1-HiBiT knock-in pool; test: VAV1 degradation activity, VAV1-HiBiT knock-in Jurkat luminescence assay (Example A, Table 1); format: cell-based; settings: VAV1-HiBiT knock-in Jurkat cells, luminescence read at 6 and 24 hours; read-out: VAV1 DC50 (nM), class
Sequence (P15498 whole entry): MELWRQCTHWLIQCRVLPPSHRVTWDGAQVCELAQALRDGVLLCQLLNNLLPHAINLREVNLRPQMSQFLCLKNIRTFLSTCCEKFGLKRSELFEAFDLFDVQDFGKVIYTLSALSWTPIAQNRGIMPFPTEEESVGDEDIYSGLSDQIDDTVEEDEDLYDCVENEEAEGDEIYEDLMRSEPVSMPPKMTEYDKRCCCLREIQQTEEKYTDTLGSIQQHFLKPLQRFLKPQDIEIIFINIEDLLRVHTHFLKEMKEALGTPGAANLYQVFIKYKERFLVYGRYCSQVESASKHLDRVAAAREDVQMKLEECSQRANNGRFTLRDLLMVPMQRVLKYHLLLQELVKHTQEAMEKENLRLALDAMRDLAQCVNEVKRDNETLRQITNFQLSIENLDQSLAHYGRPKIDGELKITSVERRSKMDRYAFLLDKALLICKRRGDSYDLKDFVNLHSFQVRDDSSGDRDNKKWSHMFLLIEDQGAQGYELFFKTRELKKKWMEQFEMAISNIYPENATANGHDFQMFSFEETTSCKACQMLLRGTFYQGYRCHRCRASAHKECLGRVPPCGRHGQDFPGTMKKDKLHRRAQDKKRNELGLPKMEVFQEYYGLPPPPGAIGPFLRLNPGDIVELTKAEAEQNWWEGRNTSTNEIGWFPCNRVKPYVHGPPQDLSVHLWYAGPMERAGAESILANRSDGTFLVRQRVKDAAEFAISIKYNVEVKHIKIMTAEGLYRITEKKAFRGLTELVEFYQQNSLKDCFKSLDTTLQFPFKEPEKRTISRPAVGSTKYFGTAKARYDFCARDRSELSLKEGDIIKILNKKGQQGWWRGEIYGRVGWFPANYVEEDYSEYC
Sequence (Q96SW2 whole entry): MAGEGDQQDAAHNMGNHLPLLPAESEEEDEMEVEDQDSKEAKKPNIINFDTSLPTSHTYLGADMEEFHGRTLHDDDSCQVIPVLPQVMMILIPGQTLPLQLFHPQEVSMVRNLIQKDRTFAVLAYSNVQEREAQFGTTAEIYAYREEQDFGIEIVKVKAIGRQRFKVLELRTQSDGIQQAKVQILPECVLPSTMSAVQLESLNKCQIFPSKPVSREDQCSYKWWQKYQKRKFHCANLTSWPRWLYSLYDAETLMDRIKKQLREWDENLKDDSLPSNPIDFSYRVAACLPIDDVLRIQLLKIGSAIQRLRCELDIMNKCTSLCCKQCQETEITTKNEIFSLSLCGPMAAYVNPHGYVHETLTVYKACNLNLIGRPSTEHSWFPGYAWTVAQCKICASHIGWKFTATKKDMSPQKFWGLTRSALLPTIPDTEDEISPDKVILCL
Sequence (Q16531 whole entry partner): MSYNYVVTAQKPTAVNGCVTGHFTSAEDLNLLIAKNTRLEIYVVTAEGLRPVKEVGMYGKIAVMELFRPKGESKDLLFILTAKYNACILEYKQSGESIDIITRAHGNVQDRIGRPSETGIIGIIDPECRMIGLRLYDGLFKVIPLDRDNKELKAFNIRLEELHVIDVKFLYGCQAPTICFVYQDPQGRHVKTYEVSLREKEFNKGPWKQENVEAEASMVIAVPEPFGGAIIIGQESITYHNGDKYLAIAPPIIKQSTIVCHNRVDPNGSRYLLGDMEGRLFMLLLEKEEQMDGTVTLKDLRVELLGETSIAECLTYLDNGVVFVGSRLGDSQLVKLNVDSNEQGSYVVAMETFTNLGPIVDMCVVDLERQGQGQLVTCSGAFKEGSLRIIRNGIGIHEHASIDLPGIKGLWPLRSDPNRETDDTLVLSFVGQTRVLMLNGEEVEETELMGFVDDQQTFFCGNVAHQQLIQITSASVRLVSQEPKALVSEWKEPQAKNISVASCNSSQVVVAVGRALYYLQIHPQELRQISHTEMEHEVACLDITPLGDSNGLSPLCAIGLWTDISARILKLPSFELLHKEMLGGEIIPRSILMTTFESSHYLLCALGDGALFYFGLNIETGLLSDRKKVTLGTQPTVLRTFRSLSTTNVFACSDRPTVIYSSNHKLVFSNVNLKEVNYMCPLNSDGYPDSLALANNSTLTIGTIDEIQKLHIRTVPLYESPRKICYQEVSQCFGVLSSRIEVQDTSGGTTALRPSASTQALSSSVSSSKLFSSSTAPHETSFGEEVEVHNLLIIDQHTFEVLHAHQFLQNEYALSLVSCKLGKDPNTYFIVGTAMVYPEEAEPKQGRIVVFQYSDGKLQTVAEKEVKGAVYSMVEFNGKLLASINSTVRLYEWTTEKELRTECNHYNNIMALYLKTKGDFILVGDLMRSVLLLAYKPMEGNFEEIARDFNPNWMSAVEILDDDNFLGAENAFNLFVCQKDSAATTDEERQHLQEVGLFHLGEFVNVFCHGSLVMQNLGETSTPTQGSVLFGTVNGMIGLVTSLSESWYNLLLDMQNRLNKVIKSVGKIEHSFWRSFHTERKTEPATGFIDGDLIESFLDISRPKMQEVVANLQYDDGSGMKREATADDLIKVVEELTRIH

INSERT INTO results (compound, recorded_value) VALUES
  ('O=C1CCC(c2cccc(-c3ccc(N4CC5CC5CC4=O)cc3)c2Cl)C(=O)N1 (centres unmarked)', '≤ 100 nM'),
  ('O=C1CCC(c2cccc(-c3ccc(CN4C(=O)CCCC45CC5)nc3)c2Cl)C(=O)N1 (centres unmarked)', '100 to 1000 nM'),
  ('Cn1ccc(COc2ccc(-c3ccc(Cl)c(C4CCC(=O)NC4=O)c3Cl)cc2)n1 (centres unmarked)', '> 1000 nM'),
  ('O=C1CC[C@](F)(c2cccc(-c3ccc(N4CCCCC4=O)cc3)c2Cl)C(=O)N1 (single isomer, unassigned)', '100 to 1000 nM'),
  ('Cn1cccc(-c2ccc(-c3cccc(C4CCC(=O)NC4=O)c3Cl)cc2)c1=O (centres unmarked)', '≤ 100 nM'),
  ('CC1(C)CCC(=O)N1c1ccc(-c2cccc(C3CCC(=O)NC3=O)c2Cl)cc1 (centres unmarked)', '≤ 100 nM'),
  ('Cc1c(-c2ccc(-n3ccccc3=O)cc2)cccc1C1CCC(=O)NC1=O (centres unmarked)', '≤ 100 nM'),
  ('CN1CCN(CCOc2ccc(-c3cccc(C4CCC(=O)NC4=O)c3Cl)cc2)CC1 (centres unmarked)', '≤ 100 nM');

Indicate the recorded DC50 value for this compound: CN1CC2(CC2)N(c2ccc(-c3cccc(C4CCC(=O)NC4=O)c3Cl)cc2)C1=O (centres unmarked)
≤ 100 nM

Indicate the recorded DC50 value for this compound: O=C1CCC(c2cccc(-c3ccc(CN4CCC5CC5C4=O)cc3)c2Cl)C(=O)N1 (centres unmarked)
≤ 100 nM

Indicate the recorded DC50 value for this compound: O=C1CCC(c2cccc(-c3ccc(-n4ccc(C(F)(F)F)cc4=O)cc3)c2Cl)C(=O)N1 (centres unmarked)
≤ 100 nM

---

biological target: VAV1 (Homo sapiens, UniProt P15498+Q96SW2); construct: A heterozygous VAV1 C-terminal HiBiT knock-in pool was generated at Monte Rosa Therapeutics from a clonal Jurkat cell; endogenous in cells; host or cells: Jurkat clone stably expressing LgBiT, homozygous GSPT1-G575N; heterozygous VAV1-HiBiT knock-in pool; experiment: VAV1 degradation activity, VAV1-HiBiT knock-in Jurkat luminescence assay (Example A, Table 1); format: cell-based; conditions: Jurkat, VAV1-HiBiT knock-in Jurkat cells, luminescence read at 6 and 24 hours; read-out: VAV1 Dmax %, class
measured quantity: Dmax

Here's what some known entries look like.
INSERT INTO assay_data (compound, recorded_value) VALUES
  ('O=C1CCC(c2cccc(-c3ccc(Cc4ccon4)cc3)c2Cl)C(=O)N1 (stereo not drawn)', '> 90%'),
  ('O=C1CCC(c2cccc(-c3ccc(NC(=O)C4CCOC4)cc3)c2Cl)C(=O)N1 (stereo not drawn)', '60 to 90%'),
  ('Cn1ccc(Cc2ccc(-c3cccc(C4CCC(=O)NC4=O)c3Cl)cc2)n1 (stereo not drawn)', '> 90%'),
  ('Cn1ccc(COc2ccc(-c3ccc(F)c(C4CCC(=O)NC4=O)c3Cl)cc2)n1 (stereo not drawn)', '60 to 90%'),
  ('CN1CCCN(c2ccc(-c3cccc(C4CCC(=O)NC4=O)c3Cl)cc2F)C1=O (stereo not drawn)', '> 90%');

Lab note: VAV1 (Homo sapiens, UniProt P15498+Q96SW2) assay, enter Dmax for O=C1CCC(c2cccc(-c3ccc(CN4CCn5cncc5C4=O)cc3)c2Cl)C(=O)N1 (stereo not drawn) here
60 to 90%

Lab note: VAV1 (Homo sapiens, UniProt P15498+Q96SW2) assay, enter Dmax for O=C1CCC(c2cccc(-c3ccc(-n4c(C(F)(F)F)cccc4=O)cc3)c2Cl)C(=O)N1 (stereo not drawn) here
> 90%

Lab note: VAV1 (Homo sapiens, UniProt P15498+Q96SW2) assay, enter Dmax for Cn1cnc(Cn2ncc3cc(-c4cccc(C5CCC(=O)NC5=O)c4Cl)ccc32)c1 (stereo not drawn) here
> 90%

Lab note: VAV1 (Homo sapiens, UniProt P15498+Q96SW2) assay, enter Dmax for Cn1ccc2c1C(=O)N(Cc1ccc(-c3cccc(C4CCC(=O)NC4=O)c3Cl)cc1)CC2 (stereo not drawn) here
> 90%
